test.protocol: Log P, partition between n-octanol and PBS
Assay type: physicochemical
condition.set: partition coefficient between 1-octanol and PBS
measure.name: Log P

>>> readout_value("Cc1cc(Cn2cc[n+](C)c2)c(Oc2c3c(c(C)c(C)[n+]2C)C2=NC3=Nc3c4ccccc4c4[n]3[Zn][n]3c(c5ccccc5c3=N2)=NC2=NC(=N4)c3ccccc32)c(Cn2cc[n+](C)c2)c1.[I-].[I-].[I-]")
0.53
>>> readout_value("Cc1cc(Cn2cc[n+](C)c2)c(Oc2cc3c(cc2Oc2c(Cn4cc[n+](C)c4)cc(C)cc2Cn2cc[n+](C)c2)C2=Nc4c5ccccc5c5[n]4[Zn][n]4c(c6ccccc6c4=NC3=N2)=NC2=NC(=N5)c3ccccc32)c(Cn2cc[n+](C)c2)c1.[I-].[I-].[I-].[I-]")
"–0.84"
>>> readout_value("Cc1cc(OCc2cn(CCOCCOCCO)nn2)c(Oc2cc3c(cc2Oc2c(OCc4cn(CCOCCOCCO)nn4)cc(C)cc2OCc2cn(CCOCCOCCO)nn2)C2=Nc4c5ccccc5c5[n]4[Zn][n]4c(c6ccccc6c4=NC3=N2)=NC2=NC(=N5)c3ccccc32)c(OCc2cn(CCOCCOCCO)nn2)c1")
1.90
>>> readout_value("O=C([O-])c1cc(C(=O)[O-])cc(-c2cc3c(cc2-c2cc(C(=O)[O-])cc(C(=O)[O-])c2)C2=Nc4c5ccccc5c5[n]4[Zn][n]4c(c6ccccc6c4=NC3=N2)=NC2=NC(=N5)c3ccccc32)c1.[Na+].[Na+].[Na+].[Na+]")
"–2.42"

* * *

test.protocol: Quantum yield of singlet oxygen production, comparative method with DPBF scavenger
Type: physicochemical
condition.set: in DMF, ZnPc as reference
measure.name: ΦΔ, quantum yield of singlet oxygen production
Give only the figure.

*Q* Give its ΦΔ, quantum yield of singlet oxygen production value. Item: CSc1cc2c(cc1SC)C1=Nc3c4cc(SC)c(SC)cc4c4[n]3[Zn][n]3c(c5cc(SC)c(SC)cc5c3=NC2=N1)=NC1=NC(=N4)c2cc(Oc3c(Cn4cc[n+](C)c4)cc(C)cc3Cn3cc[n+](C)c3)c(Oc3c(Cn4cc[n+](C)c4)cc(C)cc3Cn3cc[n+](C)c3)cc21.[I-].[I-].[I-].[I-] [C4Zn]
*A* 0.44

*Q* Give its ΦΔ, quantum yield of singlet oxygen production value. Item: Cc1cc(Cn2cc[n+](C)c2)c(Oc2c3c(c(C)c(C)[n+]2C)C2=Nc4c5c(Oc6c(Cn7cc[n+](C)c7)cc(C)cc6Cn6cc[n+](C)c6)[n+](C)c(C)c(C)c5c5[n]4[Zn][n]4c(c6c(C)c(C)[n+](C)c(Oc7c(Cn8cc[n+](C)c8)cc(C)cc7Cn7cc[n+](C)c7)c6c4=NC4=NC(=N5)c5c4c(C)c(C)[n+](C)c5Oc4c(Cn5cc[n+](C)c5)cc(C)cc4Cn4cc[n+](C)c4)=NC3=N2)c(Cn2cc[n+](C)c2)c1.[I-].[I-].[I-].[I-].[I-].[I-].[I-].[I-].[I-].[I-].[I-].[I-] [C11Zn]
*A* 0.53

*Q* Give its ΦΔ, quantum yield of singlet oxygen production value. Item: O=S(=O)([O-])c1ccc(Oc2cccc3c2C2=Cc4c5cccc(Oc6ccc(S(=O)(=O)[O-])c7cccnc67)c5c5[n]4[Zn][n]4c(c6cccc(Oc7ccc(S(=O)(=O)[O-])c8cccnc78)c6c4=CC3=N2)=CC2=NC(=C5)c3cccc(Oc4ccc(S(=O)(=O)[O-])c5cccnc45)c32)c2ncccc12.[Na+].[Na+].[Na+].[Na+] [A8Zn]
*A* 0.69

* * *

test.protocol: Absorption and fluorescence emission spectra in DMF
Type: physicochemical
condition.set: in DMF
measure.name: ε, extinction coefficient

*Q* Give its ε, extinction coefficient value. Item: `C[n+]1cccc(Oc2ccc3c(c2)C2=NC3=Nc3c4cc(Oc5ccc[n+](C)c5)ccc4c4[n]3[Zn][n]3c(c5ccc(Oc6ccc[n+](C)c6)cc5c3=NC3=NC(=N4)c4cc(Oc5ccc[n+](C)c5)ccc43)=N2)c1.F[P-](F)(F)(F)(F)F.F[P-](F)(F)(F)(F)F.F[P-](F)(F)(F)(F)F.F[P-](F)(F)(F)(F)F`
*A* 86 800 M^–1cm^–1

*Q* Give its ε, extinction coefficient value. Item: `O=S(=O)([O-])c1ccc(Oc2ccc3c(c2)C2=Cc4c5ccc(Oc6ccc(S(=O)(=O)[O-])c7cccnc67)cc5c5[n]4[Zn][n]4c(c6ccc(Oc7ccc(S(=O)(=O)[O-])c8cccnc78)cc6c4=CC3=N2)=CC2=NC(=C5)c3ccc(Oc4ccc(S(=O)(=O)[O-])c5cccnc45)cc32)c2ncccc12.[Na+].[Na+].[Na+].[Na+]`
*A* 122 420 M^–1cm^–1

*Q* Give its ε, extinction coefficient value. Item: `C[n+]1cccc(Oc2ccc3c(c2)C2=NC3=Nc3c4cc(Oc5ccc[n+](C)c5)ccc4c4[n]3[Zn][n]3c(c5ccc(Oc6ccc[n+](C)c6)cc5c3=NC3=NC(=N4)c4cc(Oc5ccc[n+](C)c5)ccc43)=N2)c1.O=S(=O)(O)O.O=S(=O)(O)O.O=S(=O)([O-])[O-].O=S(=O)([O-])[O-]`
*A* 82 140 M^–1cm^–1

*Q* Give its ε, extinction coefficient value. Item: `CC[N+](CC)(CC)CCSc1cc2c(cc1SCC[N+](CC)(CC)CC)C1=Nc3c4cc(SCC[N+](CC)(CC)CC)c(SCC[N+](CC)(CC)CC)cc4c4[n]3[Zn][n]3c(c5cc(SCC[N+](CC)(CC)CC)c(SCC[N+](CC)(CC)CC)cc5c3=NC3=NC(=N4)c4cc(SCC[N+](CC)(CC)CC)c(SCC[N+](CC)(CC)CC)cc43)=NC2=N1.[I-].[I-].[I-].[I-].[I-].[I-].[I-].[I-]`
*A* 281 600 M^–1cm^–1

*Q* Give its ε, extinction coefficient value. Item: `Cc1cc(Cn2cc[n+](C)c2)c(Oc2c3c(c(C)c(C)[n+]2C)C2=NC3=Nc3c4ccccc4c4[n]3[Zn][n]3c(c5ccccc5c3=N2)=NC2=NC(=N4)c3ccccc32)c(Cn2cc[n+](C)c2)c1.[I-].[I-].[I-]`
*A* 100 240 M^–1cm^–1

*Q* Give its ε, extinction coefficient value. Item: `OCc1cc(CO)cc(OCCCCSC2=C(SCCCCOc3cc(CO)cc(CO)c3)C3=Nc4c5ccccc5c5[n]4[Mg][n]4c(c6ccccc6c4=NC4=NC(=N5)c5ccccc54)=NC2=N3)c1`
*A* 15 950 M^–1cm^–1

*Q* Give its ε, extinction coefficient value. Item: `Cc1cc(Cn2cc[n+](C)c2)c(Oc2cc3c(cc2Oc2c(Cn4cc[n+](C)c4)cc(C)cc2Cn2cc[n+](C)c2)C2=Nc4c5ccccc5c5[n]4[Zn][n]4c(c6ccccc6c4=NC3=N2)=NC2=NC(=N5)c3ccccc32)c(Cn2cc[n+](C)c2)c1.[I-].[I-].[I-].[I-]`
*A* 177 190 M^–1cm^–1

* * *

test.protocol: Fluorescence quantum yield, comparative method
Assay type: physicochemical
condition.set: in DMF; ZnPc as reference
Please provide measured ΦF, fluorescence quantum yield for the entries that follow.
Give only the figure.

*Q* Give its ΦF, fluorescence quantum yield value. Item: Cc1cc(OCc2cn(CCO[C@@H]3O[C@H](CO)[C@@H](O)[C@H](O)[C@H]3O)nn2)c(Oc2cc3c(cc2Oc2c(OCc4cn(CCO[C@@H]5O[C@H](CO)[C@@H](O)[C@H](O)[C@H]5O)nn4)cc(C)cc2OCc2cn(CCO[C@@H]4O[C@H](CO)[C@@H](O)[C@H](O)[C@H]4O)nn2)C2=Nc4c5ccccc5c5[n]4[Zn][n]4c(c6ccccc6c4=NC3=N2)=NC2=NC(=N5)c3ccccc32)c(OCc2cn(CCO[C@@H]3O[C@H](CO)[C@@H](O)[C@H](O)[C@H]3O)nn2)c1 [N4Zn]
*A* 0.29

*Q* Give its ΦF, fluorescence quantum yield value. Item: C[n+]1cccc(Oc2cc3c(cc2Oc2ccc[n+](C)c2)C2=Nc4c5cc(Oc6ccc[n+](C)c6)c(Oc6ccc[n+](C)c6)cc5c5[n]4[Zn][n]4c(c6cc(Oc7ccc[n+](C)c7)c(Oc7ccc[n+](C)c7)cc6c4=NC4=NC(=N5)c5cc(Oc6ccc[n+](C)c6)c(Oc6ccc[n+](C)c6)cc54)=NC3=N2)c1.[I-].[I-].[I-].[I-].[I-].[I-].[I-].[I-] [C6Zn]
*A* 0.001

*Q* Give its ΦF, fluorescence quantum yield value. Item: O=C([O-])c1cc(Oc2cc3c(cc2Oc2cc(C(=O)[O-])cc(C(=O)[O-])c2)C2=Nc4c5ccccc5c5[n]4[Zn][n]4c(c6ccccc6c4=NC3=N2)=NC2=NC(=N5)c3ccccc32)cc(C(=O)[O-])c1.[Na+].[Na+].[Na+].[Na+] [A1Zn]
*A* 0.035
